system: HT-29; test: Compound was tested for inhibition of cell growth of HT-29 cells; type: functional, cell-based; settings: Homo sapiens
Note to self: IC50 under 6 µM means Yes, ties and anything higher get No.

[
  {
    "MOLECULE": "Oc1ccc(CCc2ccc3c(c2)OCO3)cc1",
    "CLASSIFICATION": "No"
  },
  {
    "MOLECULE": "COc1ccc(C2(Cc3cc(OC)c(OC)c(OC)c3)SCCCS2)cc1OC",
    "CLASSIFICATION": "No"
  },
  {
    "MOLECULE": "COc1cc(CCc2ccc3c(c2)OCO3)cc(OC)c1OC",
    "CLASSIFICATION": "No"
  },
  {
    "MOLECULE": "COc1cc(CC(=O)c2ccc3ccccc3c2)cc(OC)c1OC",
    "CLASSIFICATION": "No"
  },
  {
    "MOLECULE": "COc1cc(CCc2ccc3ccccc3c2)cc(OC)c1OC",
    "CLASSIFICATION": "Yes"
  },
  {
    "MOLECULE": "COc1ccc(CCc2cc(OC)c(OC)c(OC)c2)cc1OC",
    "CLASSIFICATION": "No"
  },
  {
    "MOLECULE": "COc1cc([C@@H]2c3cc4c(cc3[C@H](O)[C@H]3COC(=O)[C@H]23)OCO4)cc(OC)c1OC",
    "CLASSIFICATION": "Yes"
  },
  {
    "MOLECULE": "COc1cc(CC2(c3ccc4ccccc4c3)SCCCS2)cc(OC)c1OC",
    "CLASSIFICATION": "Yes"
  },
  {
    "MOLECULE": "COc1ccc(C(O)Cc2cc(OC)c(OC)c(OC)c2)cc1OC (configuration not stated)",
    "CLASSIFICATION": "No"
  },
  {
    "MOLECULE": "COc1cc(C(=O)Cc2cc(OC)c(OC)c(OC)c2)ccc1O",
    "CLASSIFICATION": "No"
  },
  {
    "MOLECULE": "COc1ccc(C(=O)Cc2cc(OC)c(OC)c(OC)c2)cc1OC",
    "CLASSIFICATION": "No"
  }
]
